# system: Nuclear factor erythroid 2-related factor 2 (Mus musculus) (UniProt Q60795)
# assay name: Induction of Nrf2-dependent HO1 protein level in mouse BV-2 cells at 20 uM after 24 hrs by sandwich ELISA
# Assay type: cell-based
property measured: Activity (%)

smiles entry | units text | value observed
COc1ccc(S(=O)(=O)/C=C/c2cccc(OC)c2)cc1 | % | 146
COc1ccc(S(=O)(=O)/C=C/c2ccccc2Cl)cc1 | % | 158
COc1ccc(S(=O)(=O)/C=C/c2ccc(Cl)cc2)cc1 | % | 169

* * *

# system: Nuclear factor erythroid 2-related factor 2 (Mus musculus) (UniProt Q60795)
# Sequence (whole entry): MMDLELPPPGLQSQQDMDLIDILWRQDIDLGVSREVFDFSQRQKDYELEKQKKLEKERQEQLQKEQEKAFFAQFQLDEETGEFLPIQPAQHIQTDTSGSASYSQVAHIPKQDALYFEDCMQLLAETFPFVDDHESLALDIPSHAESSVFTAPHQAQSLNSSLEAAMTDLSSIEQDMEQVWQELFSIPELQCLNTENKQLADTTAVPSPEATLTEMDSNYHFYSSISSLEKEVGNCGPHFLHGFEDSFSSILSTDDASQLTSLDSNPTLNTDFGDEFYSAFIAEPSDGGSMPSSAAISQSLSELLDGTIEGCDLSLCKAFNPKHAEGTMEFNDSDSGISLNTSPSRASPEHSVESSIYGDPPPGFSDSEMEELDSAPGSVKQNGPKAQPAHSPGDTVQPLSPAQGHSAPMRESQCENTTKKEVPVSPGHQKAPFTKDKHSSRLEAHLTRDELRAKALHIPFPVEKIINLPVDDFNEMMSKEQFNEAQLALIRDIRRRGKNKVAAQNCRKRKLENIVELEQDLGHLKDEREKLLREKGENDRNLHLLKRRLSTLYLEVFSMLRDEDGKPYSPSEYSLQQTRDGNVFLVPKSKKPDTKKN
# assay name: Induction of Nrf2-dependent HO1 protein level in mouse BV-2 cells at 20 uM after 24 hrs by sandwich ELISA relative to control
# Assay type: cell-based
property measured: fold change (FC)

smiles entry | fold change (FC)
COc1ccc(S(=O)(=O)/C=C/c2ccccc2N)cc1 | 1.4
COc1ccc(S(=O)(=O)/C=C/c2cccc(OC)c2)cc1 | 1.5
COc1ccc(/C=C/S(=O)(=O)c2ccc(OC)cc2)cc1 | 1.3
COc1ccc(S(=O)(=O)/C=C/c2ccc(Cl)cc2)cc1 | 1.7
COc1cccc(S(=O)(=O)/C=C/c2ccc(F)cc2)c1 | 1.6
COc1cccc(S(=O)(=O)/C=C/c2ccccc2C(F)(F)F)c1 | 2.5

A = COc1ccc(S(=O)(=O)/C=C/c2ccccc2OC)cc1
B = COc1ccccc1S(=O)(=O)/C=C/c1ccccc1F
Ask | Two entries are listed, A and B . Which one carries the higher fold change (FC)? Answer = label.
Reply | B

P = COc1ccc(S(=O)(=O)/C=C/c2ccccc2F)cc1
Q = COc1ccccc1S(=O)(=O)/C=C/c1ccc(C(F)(F)F)cc1
Ask | For P and Q , which recorded fold change (FC) is lower? Answer = label.
Reply | P

A = COc1cccc(S(=O)(=O)/C=C/c2cccc(F)c2)c1
B = COc1cccc(S(=O)(=O)/C=C/c2cccc(C(F)(F)F)c2)c1
C = COc1ccccc1S(=O)(=O)/C=C/c1ccccc1Cl
Ask | Rank descending by fold change (FC). Output the labels ranked as instructed.
Reply | C, B, A

1 = COc1ccc(S(=O)(=O)/C=C/c2ccc(C(F)(F)F)cc2)cc1
2 = COc1ccccc1S(=O)(=O)/C=C/c1cccc(Cl)c1
Ask | Two entries are listed, 1 and 2 . Which one carries the higher fold change (FC)? Answer = label.
Reply | 2
(2: 2.4, 1: 1.5)

a = COc1ccc(S(=O)(=O)/C=C/c2ccc(F)cc2)cc1
b = COc1ccccc1S(=O)(=O)/C=C/c1cccc(C(F)(F)F)c1
Ask | For a and b , which recorded fold change (FC) is lower? Answer = label.
Reply | a

I = COc1cccc(S(=O)(=O)/C=C/c2ccccc2F)c1
II = COc1ccccc1S(=O)(=O)/C=C/c1ccc(F)cc1
Ask | For I and II , which recorded fold change (FC) is lower? Answer = label.
Reply | I

a = COc1cccc(S(=O)(=O)/C=C/c2ccc(C(F)(F)F)cc2)c1
b = COc1cccc(S(=O)(=O)/C=C/c2ccc(Cl)cc2)c1
Ask | For a and b , which recorded fold change (FC) is lower? Answer = label.
Reply | a

src = ChEMBL document CHEMBL3124841
